Numbers sourced from paper PMC3914206.

Target: panel of 442 kinases (Homo sapiens, UniProt Q56UN5)
Construct: purchased KINOMEscan
Sequence (Q56UN5 whole entry): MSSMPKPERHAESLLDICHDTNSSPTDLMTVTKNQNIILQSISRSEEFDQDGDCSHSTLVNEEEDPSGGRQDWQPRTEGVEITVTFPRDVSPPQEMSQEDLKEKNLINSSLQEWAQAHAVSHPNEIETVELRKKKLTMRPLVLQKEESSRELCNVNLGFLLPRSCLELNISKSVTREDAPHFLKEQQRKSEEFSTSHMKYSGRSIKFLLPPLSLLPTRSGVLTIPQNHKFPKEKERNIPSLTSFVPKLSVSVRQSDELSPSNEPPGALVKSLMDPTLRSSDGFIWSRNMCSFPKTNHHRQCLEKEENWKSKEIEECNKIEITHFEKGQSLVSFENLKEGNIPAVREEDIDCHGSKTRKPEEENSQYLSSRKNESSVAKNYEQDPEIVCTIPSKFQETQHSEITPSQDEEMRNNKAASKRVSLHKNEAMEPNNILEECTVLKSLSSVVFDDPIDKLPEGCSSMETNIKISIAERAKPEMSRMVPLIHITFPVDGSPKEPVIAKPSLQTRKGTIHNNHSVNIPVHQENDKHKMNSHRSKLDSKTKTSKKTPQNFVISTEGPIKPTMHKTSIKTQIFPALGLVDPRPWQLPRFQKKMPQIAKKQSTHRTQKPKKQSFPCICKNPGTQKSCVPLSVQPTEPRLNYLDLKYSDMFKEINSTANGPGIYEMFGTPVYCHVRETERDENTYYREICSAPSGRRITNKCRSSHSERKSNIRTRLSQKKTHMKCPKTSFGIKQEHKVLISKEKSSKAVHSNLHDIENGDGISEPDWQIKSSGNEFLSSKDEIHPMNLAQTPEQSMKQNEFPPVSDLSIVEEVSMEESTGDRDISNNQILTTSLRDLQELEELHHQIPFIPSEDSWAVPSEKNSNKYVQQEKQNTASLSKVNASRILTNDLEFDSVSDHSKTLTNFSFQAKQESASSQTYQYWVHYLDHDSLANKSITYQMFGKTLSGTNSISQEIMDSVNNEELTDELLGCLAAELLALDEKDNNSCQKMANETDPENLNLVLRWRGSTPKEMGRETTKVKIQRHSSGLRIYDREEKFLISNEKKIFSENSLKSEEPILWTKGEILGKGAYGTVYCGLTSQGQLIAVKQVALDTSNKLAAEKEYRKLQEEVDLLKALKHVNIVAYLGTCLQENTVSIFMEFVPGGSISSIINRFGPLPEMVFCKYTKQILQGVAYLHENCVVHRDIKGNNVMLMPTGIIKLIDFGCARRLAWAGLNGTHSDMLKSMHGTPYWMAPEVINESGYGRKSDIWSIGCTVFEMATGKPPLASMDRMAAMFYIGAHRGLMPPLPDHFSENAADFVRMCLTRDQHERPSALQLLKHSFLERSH
Format: binding
Conditions: kinase YSK4; compound concentration 10 µM
Source text: We assessed the selectivity of members of this scaffold using the KINOMEscan methodology across a near comprehensive panel of 442 kinases [[18,27]].
# % Ctrl, YSK4 annotations

smiles data	quantity unit	% Ctrl, YSK4
CCOc1cc(C(=O)N2CCC(N3CCN(C)CC3)CC2)ccc1Nc1ncc2c(n1)N(C1CCCC1)c1ccccc1C(=O)N2C	% Ctrl	100
COc1cc(C(=O)N2CCC(N3CCN(C)CC3)CC2)ccc1Nc1ncc2c(n1)N1CCc3cccc(c31)C(=O)N2C	% Ctrl	24
COc1cc(C(=O)N2CCC(N3CCN(C)CC3)CC2)ccc1Nc1ncc2c(n1)N(C)c1ccccc1C(=O)N2C	% Ctrl	99
COc1cc(C(=O)N2CCC(N3CCN(C)CC3)CC2)ccc1Nc1ncc2c(n1)N(C1CCCC1)c1ccccc1C(=O)N2C	% Ctrl	100
